Data origin: patent US11739098B2

Target: human TLR7 (Homo sapiens)
Sequence (Q9NYK1 27-1049): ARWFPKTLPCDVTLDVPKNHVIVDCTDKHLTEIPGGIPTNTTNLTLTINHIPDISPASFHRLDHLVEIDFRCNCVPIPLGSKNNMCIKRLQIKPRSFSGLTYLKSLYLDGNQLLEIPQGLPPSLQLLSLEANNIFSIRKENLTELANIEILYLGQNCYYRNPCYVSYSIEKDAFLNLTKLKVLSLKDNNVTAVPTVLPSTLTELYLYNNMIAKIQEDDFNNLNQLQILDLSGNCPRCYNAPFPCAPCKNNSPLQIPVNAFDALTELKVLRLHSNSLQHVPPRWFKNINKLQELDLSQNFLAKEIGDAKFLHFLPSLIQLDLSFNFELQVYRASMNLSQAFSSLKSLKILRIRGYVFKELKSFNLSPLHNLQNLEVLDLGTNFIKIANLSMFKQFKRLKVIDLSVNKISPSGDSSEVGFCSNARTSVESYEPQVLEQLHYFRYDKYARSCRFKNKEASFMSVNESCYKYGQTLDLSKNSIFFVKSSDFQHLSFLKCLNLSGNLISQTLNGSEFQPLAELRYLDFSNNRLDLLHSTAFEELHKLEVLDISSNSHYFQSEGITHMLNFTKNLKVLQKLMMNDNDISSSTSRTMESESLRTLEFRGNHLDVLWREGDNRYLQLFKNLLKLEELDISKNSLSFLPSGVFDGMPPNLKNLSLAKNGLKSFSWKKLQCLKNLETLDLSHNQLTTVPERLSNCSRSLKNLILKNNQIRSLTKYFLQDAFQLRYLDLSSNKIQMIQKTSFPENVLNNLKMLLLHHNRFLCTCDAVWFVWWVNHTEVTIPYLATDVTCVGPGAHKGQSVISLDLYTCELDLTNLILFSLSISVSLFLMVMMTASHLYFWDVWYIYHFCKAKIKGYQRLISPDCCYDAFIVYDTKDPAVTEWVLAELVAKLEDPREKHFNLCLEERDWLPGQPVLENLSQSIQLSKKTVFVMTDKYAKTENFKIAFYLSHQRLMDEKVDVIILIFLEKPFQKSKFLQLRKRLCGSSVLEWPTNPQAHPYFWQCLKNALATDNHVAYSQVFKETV
Assay: TLR7 inhibition reporter assay (HEK-Blue cells, SEAP reporter, gardiquimod stimulation)
Details: HEK-Blue cells overexpressing human TLR7, SEAP reporter, gardiquimod 7.5 μM
Below is a list of entries, each paired with its recorded IC50 value.

CC(C)c1c(-c2ccc3ncnn3n2)[nH]c2ccc(C3CCNCC3)cc12 [Example 242]: < 100 nM
Cc1cc(-c2[nH]c3ccc(C4CCNCC4)cc3c2C(C)C)cc2ncc(O)nc12 [Example 87]: < 100 nM
Cc1cc(-c2[nH]c3ccc(C4CCN(C(=O)CN5CCC(F)CC5)CC4)cc3c2C(C)C)cn2nnnc12 [Example 474]: < 100 nM
CC(C)c1c(-c2ccnc3c2ccn3S(C)(=O)=O)[nH]c2ccc(C3CCNCC3)cc12 [Example 3]: 100 to 1000 nM
CNCC(=O)N1CCC(c2ccc3[nH]c(-c4cc(OC)c5nccn5c4)c(C(C)C)c3c2)CC1 [Example 559]: < 100 nM
Cc1cc(-c2[nH]c3ccc(C4CCN(Cc5ncn(C)n5)CC4)cc3c2C(C)C)cn2nncc12 [Example 881]: 1000 to 50000 nM
CCc1c(-c2cnnc3[nH]ccc23)[nH]c2ccc(C3CCNCC3)cc12 [Example 245]: 100 to 1000 nM
CC(C)c1c(-c2cccn3ncnc23)[nH]c2ccc(C3CCN(CC(C)(C)O)CC3)cc12 [Example 760]: 100 to 1000 nM
CNC(=O)CN1CCC(c2ccc3[nH]c(-c4cc(C)n5cncc5c4)c(C(C)C)c3c2)CC1 [Example 440]: < 100 nM
Cc1cn2cc(-c3[nH]c4ccc(C5CCN(C(=O)CC(C)(C)O)CC5)cc4c3C(C)C)c(C)cc2n1 [Example 597]: 100 to 1000 nM

QUERY: I would be grateful if you could share the reported IC50 for Cc1cn2cc(-c3[nH]c4ccc(C5CCN(Cc6c[nH]cn6)CC5)cc4c3C(C)C)ccc2n1 [Example 936] .
RESULT: < 100 nM

QUERY: Please report the recorded IC50 for Cc1cc(-c2[nH]c3ccc(C4CCN(C(CO)CO)CC4)cc3c2C(C)C)cc2nccn12 [Example 755] .
RESULT: 100 to 1000 nM

QUERY: If you can, please state the reported IC50 value of COc1cc(-c2[nH]c3ccc(C4CCN(CC(C)(C)O)CC4)cc3c2C(C)C)cc2nccn12 [Example 758] .
RESULT: 100 to 1000 nM

QUERY: Tell me the measured IC50 of Cc1cc(-c2[nH]c3ccc(C4CCNCC4)cc3c2C(C)C)cc2c(O)c(C#N)cnc12 [Example 107] , please.
RESULT: 1000 to 50000 nM

QUERY: Value lookup for IC50; key = COc1cc(-c2[nH]c3ccc(C4CCN(CC(=O)N(C)C)CC4)cc3c2C(C)C)cc2nc(C)cn12 [Example 334]
RESULT: 100 to 1000 nM

QUERY: I am curious: what IC50 value has been reported for CNC(=O)CN1CCC(c2ccc3[nH]c(-c4cc(C(F)(F)F)c5nc(C)cn5c4)c(C(C)C)c3c2)CC1 [Example 377] ?
RESULT: < 100 nM

* * *

# IC50 per entry
Target: human TLR9 (Homo sapiens, UniProt Q9NR96)
Sequence (Q9NR96 26-1032): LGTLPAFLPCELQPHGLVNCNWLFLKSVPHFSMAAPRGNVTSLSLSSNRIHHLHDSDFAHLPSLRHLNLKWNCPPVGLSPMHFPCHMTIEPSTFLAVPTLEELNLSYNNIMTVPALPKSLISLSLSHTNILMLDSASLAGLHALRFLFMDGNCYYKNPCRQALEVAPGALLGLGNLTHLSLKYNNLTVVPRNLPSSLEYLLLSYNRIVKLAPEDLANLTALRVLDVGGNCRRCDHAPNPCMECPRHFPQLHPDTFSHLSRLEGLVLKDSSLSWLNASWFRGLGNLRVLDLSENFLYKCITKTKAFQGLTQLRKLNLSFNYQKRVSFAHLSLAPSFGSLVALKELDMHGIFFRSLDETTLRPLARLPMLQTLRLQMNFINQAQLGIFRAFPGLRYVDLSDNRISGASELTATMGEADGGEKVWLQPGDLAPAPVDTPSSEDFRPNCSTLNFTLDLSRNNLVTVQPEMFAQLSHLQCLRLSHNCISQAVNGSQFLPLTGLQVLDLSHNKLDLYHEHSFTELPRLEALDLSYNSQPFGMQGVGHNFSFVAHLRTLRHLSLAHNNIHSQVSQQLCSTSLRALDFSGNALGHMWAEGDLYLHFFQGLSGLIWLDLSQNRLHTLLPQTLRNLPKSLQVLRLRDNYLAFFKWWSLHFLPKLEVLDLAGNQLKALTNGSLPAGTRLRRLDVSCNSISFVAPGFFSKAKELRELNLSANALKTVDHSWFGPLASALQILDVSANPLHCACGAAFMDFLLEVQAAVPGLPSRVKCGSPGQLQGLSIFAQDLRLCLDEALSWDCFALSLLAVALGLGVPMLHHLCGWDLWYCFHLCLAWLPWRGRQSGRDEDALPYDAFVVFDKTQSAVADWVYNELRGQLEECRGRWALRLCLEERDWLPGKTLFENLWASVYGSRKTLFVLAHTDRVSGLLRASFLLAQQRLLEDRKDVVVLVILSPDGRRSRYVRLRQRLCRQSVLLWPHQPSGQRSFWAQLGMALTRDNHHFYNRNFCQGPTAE
Experiment: TLR9 inhibition reporter assay (HEK-Blue cells, SEAP reporter, ODN2006 stimulation)
Settings: HEK-Blue cells overexpressing human TLR9, SEAP reporter, ODN2006 5 nM

CC(C)c1c(-c2cc(CO)c3nccn3c2)[nH]c2ccc(C3CCN(CC(=O)N(C)C)CC3)cc12: 0.1 to 1 µM
CC(C)c1c(-c2c[nH]c3ncccc23)[nH]c2ccc(C3CCNCC3)cc12: 0.1 to 1 µM
CCc1c(-c2ccnc3[nH]ncc23)[nH]c2ccc(C3CCN(Cc4cc(-c5ccccc5)on4)CC3)cc12: 1 to 50 µM
CC(C)c1c(-c2cnc3ccnn3c2)[nH]c2ccc(C3CCN(CC(=O)N(C)C)CC3)cc12: 1 to 50 µM

QUERY: Please tell me: IC50 of "CC(C)c1c(-c2cnc3ncnn3c2)[nH]c2ccc(C3CCN(C4CCS(=O)(=O)CC4)CC3)cc12" , system human TLR9 (Homo sapiens, UniProt Q9NR96)?
RESULT: 1 to 50 µM

QUERY: Find the measured IC50: item "COc1cc(-c2[nH]c3ccc(C4CCN(C(=O)CN(C)C)CC4)cc3c2C(C)C)cc2nc(C)nn12" , target or system human TLR9 (Homo sapiens, UniProt Q9NR96).
RESULT: 1 to 50 µM

QUERY: // lookup IC50 | system=human TLR9 (Homo sapiens, UniProt Q9NR96) | key= "CCc1c(-c2ccnc3[nH]nc(C)c23)[nH]c2ccc(C3CCN(Cc4cnc[nH]4)CC3)cc12"
RESULT: 0.1 to 1 µM

QUERY: Lab note: need IC50 with human TLR9 (Homo sapiens, UniProt Q9NR96) for entry "CNC(=O)CN1CCC(c2ccc3[nH]c(-c4cc(C)c5nnnn5c4)c(C(C)C)c3c2)CC1" , please look it up.
RESULT: 1 to 50 µM

QUERY: Provide the documented IC50 with human TLR9 (Homo sapiens, UniProt Q9NR96) as the system for "CNC(=O)CN1CCC(c2ccc3[nH]c(-c4cc(C)c5nc(C(=O)N(C)CCO)cn5c4)c(C(C)C)c3c2)CC1"
RESULT: 1 to 50 µM
